Data credit: patent US5057613A

# Study System: dopamine beta-hydroxylase (DBH) (Bos taurus)
# Sequence (P15101 whole entry): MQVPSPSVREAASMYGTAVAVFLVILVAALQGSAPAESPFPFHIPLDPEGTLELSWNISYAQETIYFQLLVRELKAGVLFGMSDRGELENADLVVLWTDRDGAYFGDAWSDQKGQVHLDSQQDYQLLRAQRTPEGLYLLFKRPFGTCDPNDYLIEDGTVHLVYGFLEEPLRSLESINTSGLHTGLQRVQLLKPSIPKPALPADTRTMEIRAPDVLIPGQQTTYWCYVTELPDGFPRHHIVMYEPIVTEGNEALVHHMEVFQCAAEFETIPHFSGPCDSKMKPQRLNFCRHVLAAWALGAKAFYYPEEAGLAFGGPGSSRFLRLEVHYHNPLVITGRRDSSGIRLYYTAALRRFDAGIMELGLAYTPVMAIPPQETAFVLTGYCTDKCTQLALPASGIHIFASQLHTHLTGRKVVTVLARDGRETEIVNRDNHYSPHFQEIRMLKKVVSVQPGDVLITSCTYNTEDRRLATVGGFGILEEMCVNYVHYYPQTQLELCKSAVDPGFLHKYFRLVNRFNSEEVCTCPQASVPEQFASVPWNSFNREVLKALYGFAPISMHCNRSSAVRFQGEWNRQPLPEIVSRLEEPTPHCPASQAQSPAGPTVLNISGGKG
# Assay Overview: in vitro inhibition of dopamine beta-hydroxylase (conversion of tyramine to octopamine, oxygen uptake by polarographic electrode)
# Protocol Conditions: pH 5, 20-40° C, preferably 37° C
pIC50: −log10 of the molar value.
Property Name: pIC50

A: S=c1[nH]ccn1CCc1cccs1
B: Sc1nccn1CCCc1cccs1
In terms of reported pIC50, does A or B have the smaller number? Answer with the label corresponding to your selection.
B
(B: 5.73, A: 6.92)
